target: PDE4B2 (Homo sapiens); construct: made in house; host or cells: SF21 insect cells (baculovirus generated in SF9 cells, pCR-Bac vector); assay: Inhibition of PDE4B2 activity, modified [3H]cAMP SPA (scintillation proximity assay) test; format: biochemical; details: recombinant PDE4B2 expressed in SF21 insect cells; 0.5 μM cAMP; 15 min at 37° C.; read-out: PDE4 Inhibition [measured as -logIC50 (mol/l)] (converted)
Sequence (Q07343 1-564 isoform Q07343-2): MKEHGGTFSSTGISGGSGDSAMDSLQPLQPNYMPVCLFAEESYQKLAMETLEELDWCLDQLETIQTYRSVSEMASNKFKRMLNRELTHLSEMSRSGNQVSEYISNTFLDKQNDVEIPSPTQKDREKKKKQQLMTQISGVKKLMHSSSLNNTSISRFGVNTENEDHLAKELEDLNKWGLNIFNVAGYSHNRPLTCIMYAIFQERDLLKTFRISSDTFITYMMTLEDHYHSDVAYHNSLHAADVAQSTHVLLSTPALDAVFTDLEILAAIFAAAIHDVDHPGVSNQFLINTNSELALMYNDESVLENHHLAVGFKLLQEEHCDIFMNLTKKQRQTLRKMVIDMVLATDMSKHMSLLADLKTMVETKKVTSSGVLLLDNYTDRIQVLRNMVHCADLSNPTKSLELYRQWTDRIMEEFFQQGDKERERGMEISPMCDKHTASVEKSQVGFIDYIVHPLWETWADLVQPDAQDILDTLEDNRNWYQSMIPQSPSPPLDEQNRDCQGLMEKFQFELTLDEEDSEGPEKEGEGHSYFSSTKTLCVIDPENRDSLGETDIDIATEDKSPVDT

| smilesStructure | unitOfMeasure | IC50 |
| --- | --- | --- |
| COc1ccc(C2=NN(C3CCN(C(=O)CN4C(=O)COCC4=O)CC3)C(=O)C(C)(C)C2)cc1OC | nM | 0.646 |
| COc1ccc(C2=NN(C3CCN(S(=O)(=O)c4ccccc4C#N)CC3)C(=O)C(C)(C)C2)cc1OC | nM | 0.295 |
| COc1ccc(C2=NN(C3CCN(C(=O)CN4C(=O)CCC4=O)CC3)C(=O)C(C)(C)C2)cc1OC | nM | 1.29 |
